biological target: KDR (human, UniProt P35968 20-1356); assay: cell-based or functional assay
Sequence (P35968 20-1356): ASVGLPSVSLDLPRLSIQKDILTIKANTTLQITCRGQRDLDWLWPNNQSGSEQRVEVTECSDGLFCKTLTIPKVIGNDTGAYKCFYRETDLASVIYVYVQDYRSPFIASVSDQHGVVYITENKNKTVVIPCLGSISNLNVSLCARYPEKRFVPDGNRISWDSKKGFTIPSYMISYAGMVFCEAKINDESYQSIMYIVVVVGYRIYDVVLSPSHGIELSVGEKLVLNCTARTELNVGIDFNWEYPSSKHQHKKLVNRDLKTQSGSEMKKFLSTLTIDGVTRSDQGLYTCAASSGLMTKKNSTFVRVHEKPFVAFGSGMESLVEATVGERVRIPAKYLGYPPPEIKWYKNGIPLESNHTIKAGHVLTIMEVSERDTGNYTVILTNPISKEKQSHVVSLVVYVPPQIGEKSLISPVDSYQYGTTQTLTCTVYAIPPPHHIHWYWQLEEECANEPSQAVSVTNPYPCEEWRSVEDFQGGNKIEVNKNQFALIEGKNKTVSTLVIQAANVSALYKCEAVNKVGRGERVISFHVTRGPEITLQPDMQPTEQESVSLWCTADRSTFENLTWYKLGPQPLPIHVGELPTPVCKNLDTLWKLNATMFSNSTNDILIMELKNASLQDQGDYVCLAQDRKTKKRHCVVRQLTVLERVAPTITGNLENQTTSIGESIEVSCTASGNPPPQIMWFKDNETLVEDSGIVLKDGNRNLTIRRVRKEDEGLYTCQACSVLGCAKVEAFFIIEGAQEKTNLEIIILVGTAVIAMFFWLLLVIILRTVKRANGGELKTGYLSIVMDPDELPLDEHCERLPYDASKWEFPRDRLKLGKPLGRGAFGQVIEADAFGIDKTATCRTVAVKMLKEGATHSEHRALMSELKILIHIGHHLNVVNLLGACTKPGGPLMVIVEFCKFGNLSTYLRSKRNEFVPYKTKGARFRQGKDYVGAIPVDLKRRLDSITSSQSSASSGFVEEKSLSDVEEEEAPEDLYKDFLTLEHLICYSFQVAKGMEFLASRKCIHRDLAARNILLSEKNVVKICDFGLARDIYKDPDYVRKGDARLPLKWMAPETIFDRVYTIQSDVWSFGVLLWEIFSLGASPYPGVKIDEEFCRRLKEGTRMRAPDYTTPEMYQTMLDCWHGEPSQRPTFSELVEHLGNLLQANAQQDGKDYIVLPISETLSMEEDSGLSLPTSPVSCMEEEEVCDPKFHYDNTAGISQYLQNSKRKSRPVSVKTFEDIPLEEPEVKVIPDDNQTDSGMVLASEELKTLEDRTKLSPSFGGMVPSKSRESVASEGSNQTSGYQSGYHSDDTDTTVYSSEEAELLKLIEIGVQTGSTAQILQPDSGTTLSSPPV
QUANTITY_NAME: Activity at 133 nM (% Inhibition), 24-hour Pre-incubation at 37° C., N = 1 (%)

BINDER	READOUT_UNITS	EXPERIMENTAL_RESULT
33D5 (antibody, V domains shown) VH: QVQLVQSGAEVKKPGASVKVSCKASGYTFGSYDINWVRQATGQGLEWMGWMNPNSGNTGYAQKFQGRVTLTRNTSIRTVYMELSSLRSEDTAVYYCARGGYSNLGWFDPWGQGSLVTVSS VL: DIQMTQSPSSVSVSVGDRVTITCRASQGISSWLAWYQQKPGKAPKLLIYAASSLQSGVPSRFSGSGSGTDFTLTISSLQPEDFATYYCQQANSFPFTFGPGTKVDIK	%	8
24C9 (antibody, V domains shown) VH: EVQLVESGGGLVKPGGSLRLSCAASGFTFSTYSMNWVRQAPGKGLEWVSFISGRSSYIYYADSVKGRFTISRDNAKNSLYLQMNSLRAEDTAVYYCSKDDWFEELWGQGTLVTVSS VL: DIQMTQSPSSLSASVGDRVTITCRASQGIRNDLGWYQQKPGKAPKRLIYATFSLQSGVPSRFSGSGSGTEFTLTISSLQPEDFATYYCLQHNRYPWTFGQGTKVEIK	%	46
31E11 (antibody, V domains shown) VH: QVQLVESGGGLVKPGGSLRLSCAASGFTFSDYYMSWIRQAPGKGLEWVSYISISGSTIYYADSVKGRFTISRDNAKNSLYLQMNSLRAEDTAVYYCARDDFWSGYYFNWFDPWGQGTLVTVSS VL: DIQMTQSPSSLSASVGDRVTITCRANQTISTFLNWYQQNPGKAPKLLIYAASSLQSGVPSRFSGSGSGTDFTLTISSLQPEDFATYYCQQTYIIPLTFGGGTKVEIK	%	90
24B3 (antibody, V domains shown) VH: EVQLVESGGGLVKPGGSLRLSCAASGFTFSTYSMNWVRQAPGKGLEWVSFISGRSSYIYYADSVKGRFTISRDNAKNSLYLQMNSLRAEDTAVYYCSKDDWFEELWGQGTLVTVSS VL: DIQMTQSPSSLSASVGDRVTITCRASQGIRSDLGWYQQKPGKAPKRLIYATSSLQSGVPSRFSGSGSGTEFTLTISSLQPEDFATYYCLQHNRYPWTFGQGTKVEIK	%	76
29A3 (antibody, V domains shown) VH: QVQLQESGPGLVKPSETLSLTCTVSGGSISSYFWSWIRQPAGKGLEWIGRIYFSGRTNYNPSLKSRVTMSVETSKNQFSLKLNSVTAADTAVYYCARDGGWNYDVAFDYWGQGTLVTVSS VL: QAVLTQPSSLSASPGASASLTCTLRSGINVGTYRIYWYQQKPGSPPQYLLRYKSDSDQLQGSGVPSRFSGSKDASANAGILLISGLQSEDEADYYCMVWHSNTWVFGGGTKLTVL	%	7
33B1 (antibody, V domains shown) VH: EVQLVESGGGLVKPGGSLRLSCAASGFTFSSYTMNWVRQAPGKGLEWVSFIDSRSSYIYYADSVKGRFTISRDNAKNSLYLQMNSLRAEDTAVYYCSKDDWFEELWGQGTLVTVSS VL: DIQMTQSPSSLSASVGDRVTITCRASQGIRNDLGWYQQKPGKAPKRLIYATSSLQSGVPSRFSGSGSGTEFTLTISSLQPEDFATYYCLHHNSFPWTFGQGTKVEIK	%	88
21H6 (antibody, V domains shown) VH: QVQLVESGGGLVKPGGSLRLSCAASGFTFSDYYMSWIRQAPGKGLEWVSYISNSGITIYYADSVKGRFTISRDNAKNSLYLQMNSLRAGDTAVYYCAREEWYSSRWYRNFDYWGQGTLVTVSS VL: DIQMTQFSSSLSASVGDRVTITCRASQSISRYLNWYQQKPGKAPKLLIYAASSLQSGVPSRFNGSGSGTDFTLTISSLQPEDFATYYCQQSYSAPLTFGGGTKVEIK	%	35
32F4 (antibody, V domains shown) VH: QLQLQESGPGLVKPSGTLSLSCTVSGGSISSRSDYWGWIRQPPGKGLEWIGTIYYSGNTFYNPSLKSRVTISVDTSKKQFSLKLSSVTAADTAVYYCARQQLVLYYFDYWGQGTLVTVSS VL: EIVLTQSPGTLSLSPGERATLSCRTSQSVSSSYLAWYQQKPGQAPRLLIYGASSRATGVPDRFSGSGSGTDFSLTISRLEPEDFAVYYCQQYGSSPPLTFGGGTKVEIK	%	25
30F6 (antibody, V domains shown) VH: QVQLVESGGGVVQPGRSLRLSCAASGFTFSTYGMHWVRQAPGKGLEWVAVIWYDGSNKYYADSVKGRFTISRDNSKNTLYLQMNSLRAEDTAVYYCACSYWNDDYYYGMDVWGQGTTVTVSS VL: DIQMTQSPSSLSASVGDRVIITCRASQNISSYLIWYQQKPGKAPNLLIHTTSSLQRGVPSRFSGSGSGTDFTLTISSLQPEDFATYYCQQSYSAPLTFGGGTKVEIK	%	60
29F7 (antibody, V domains shown) VH: QVQLVQSGAEVKKPGASVKVSCKASGYTFTSYDINWVRQATGQGLEWMGWMNPNSGKTGYAQKFQGRVTMTRSTSISTAYMELSSLRSEDTAVYYCARGGYSNLGWFDPWGQGTLVTVSS VL: DIQMTQSPSSVFASVGDRVTITCRASQGISTWLAWYQQKPGKAPKFLIYAASSLQSGVPSRFSGSGSGTDFTLTISSLQPDDFATYYCQQANNFPFTFGPGTKVDIK	%	23
